Tested on: MOLM14 cells
protocol-notes: Proliferation assay, spheroid-like growth, MOLM14 (MLL-AF9 rearranged)
Type: cell-based, human
measurement-setup: Homo sapiens, MOLM-14, 192 h, 8 days, confluence as measure of spheroid size, read-out: spheroid assay_OneTime MOLM14 IC50
measurement-label: IC50 (µM)

CC(=O)N1CCN([C@H]2C[C@@H]([C@@H](C(C)C)N3CC4(CCN(c5ncnnc5Oc5ccc(F)cc5-c5ncc(C#N)cc5C5CC5)C4)C3)C2)CC1 (single isomer, unassigned) [Compound 79]	0.24

(A) CC(C)[C@@H]([C@H]1CC[C@@H](NC(=O)C2CC2)C1)N1CC2(CCN(c3ncnnc3Oc3ccc(F)cc3-c3cncnc3C3CC3)C2)C1 (single isomer, unassigned) [Compound 344]
(B) CNC(=O)c1sc(N[C@H]2C[C@@H]([C@@H](C(C)C)N3CC4(CCN(c5ncnnc5Oc5ccc(F)cc5-c5cncnc5C5CC5)C4)C3)C2)nc1C (single isomer, unassigned) [Compound 443]
// which entry has the larger IC50 value, A or B ? Refer to your chosen item by its label in the answer.
A

====

test-target: menin/MLL (terbium chelate-labeled menin, FITC-MBM1 peptide) (Homo sapiens, UniProt O00255, T541A)
Construct: Menin (a.a 1-610-6xhis tag)
Sequence (O00255 with tags, fused parts or gaps T541A): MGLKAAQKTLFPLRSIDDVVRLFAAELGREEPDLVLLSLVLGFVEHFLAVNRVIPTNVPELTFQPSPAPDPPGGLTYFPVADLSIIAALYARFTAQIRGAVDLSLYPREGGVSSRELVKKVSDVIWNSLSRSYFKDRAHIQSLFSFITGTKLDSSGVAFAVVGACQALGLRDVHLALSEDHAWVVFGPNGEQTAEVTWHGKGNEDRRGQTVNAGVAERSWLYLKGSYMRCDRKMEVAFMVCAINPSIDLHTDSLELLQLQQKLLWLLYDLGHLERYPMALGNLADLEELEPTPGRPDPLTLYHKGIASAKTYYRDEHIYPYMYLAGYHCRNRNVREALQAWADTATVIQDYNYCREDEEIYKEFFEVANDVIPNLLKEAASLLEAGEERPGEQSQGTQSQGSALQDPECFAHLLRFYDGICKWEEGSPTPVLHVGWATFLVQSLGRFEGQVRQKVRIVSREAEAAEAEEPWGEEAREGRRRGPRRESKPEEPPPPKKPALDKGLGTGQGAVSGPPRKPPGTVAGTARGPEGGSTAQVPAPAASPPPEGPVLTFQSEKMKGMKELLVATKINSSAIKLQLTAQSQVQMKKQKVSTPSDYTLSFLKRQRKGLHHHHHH
protocol-notes: Menin/MLL homogenous time-resolved fluorescence (HTRF) assay
measurement-setup: 30 min incubation
Protocol: 1) Menin/MLL Homogenous Time-Resolved Fluorescence (HTRF) Assay […] Compound potencies were determined by first calculating % inhibition at each compound concentration according to equation 1: […] Where LC and HC are the HTRF values of the assay in the presence or absence of a saturating concentration of a compound that competes with FITC-MBM1 for binding to menin, and HTRF^compound is the measured HTRF value in the presence of the test compound. […]
pIC50: −log10 of the molar value.
measurement-label: pIC50

Check out these entries, answers already filled in.
CC(C)[C@H]([C@H]1C[C@@H](NC(=O)C2CC2)C1)N1CC2(CCN(c3ncnnc3Oc3ccc(F)cc3-c3cnncc3C3CC3)C2)C1 (single isomer, unassigned) [Compound 185]	10.00
CC(C)[C@H]([C@H]1C[C@@H](Nc2ccn3ccnc3n2)C1)N1CC2(CCN(c3ncnnc3Oc3ccc(F)cc3-c3cncnc3C3CC3)C2)C1 (single isomer, unassigned) [Compound 412]	9.80

(P) CO[C@H]1[C@@H]2CN([C@H]3C[C@@H]([C@H](C(C)C)N4CC5(CCN(c6ncnnc6Oc6ccc(F)cc6-c6nnc(C)cc6C6CC6)C5)C4)C3)C[C@@H]21 [Compound 402]
(Q) CC(=O)N1CC[C@@]12CCN([C@H]1C[C@@H]([C@@H](C(C)C)N3CC4(CCN(c5ncnnc5Oc5ccc(F)cc5-c5cncnc5C5CC5)C4)C3)C1)C2 (single isomer, unassigned) [Compound 59]
(R) CC(C)[C@H]([C@H]1C[C@@H](N2CCC[C@H](O)C2)C1)N1CC2(CCN(c3ncnnc3Oc3ccc(F)cc3-c3cccnc3C3CC3)C2)C1 (single isomer, unassigned) [Compound 78]
Put the compounds in ascending order of pIC50. A complete answer lists every label in the requested sequence.
R, P, Q
(R: 8.54, P: 9.77, Q: 10.00)

====

Test system: MOLM14 cells
protocol-notes: Proliferation assay, spheroid-like growth, MOLM14 (MLL-AF9 rearranged)
Type: cell-based, human
measurement-setup: Homo sapiens, MOLM-14, 192 h, 8 days, confluence as measure of spheroid size, read-out: spheroid assay_OneTime MOLM14 IC50
measurement-label: IC50 (nM)

CC(C)[C@@H]([C@H]1C[C@@H](N2CCCCC2)C1)N1CC2(CCN(c3ncnnc3Oc3ccc(F)cc3-c3nnccc3C3CC3)C2)C1 (single isomer, unassigned)	8

(a) CC(C)C([C@H]1C[C@@H](NC(=O)C2CC2)C1)N1CC2(CCN(c3ncnnc3Oc3ccc(F)cc3-c3cnncc3C3CC3)C2)C1 (stereo partly drawn)
(b) CO[C@H]1CCN([C@H]2C[C@@H](C(C(C)C)N3CC4(CCN(c5ncnnc5Oc5ccc(F)cc5-c5nnccc5C5CC5)C4)C3)C2)C1 (single isomer, unassigned)
Between the entries labeled a and b , whose measured IC50 is lower? Refer to your chosen item by its label in the answer.
b
(b: 3 nM, a: 10 nM)

====

test-target: menin/MLL (terbium chelate-labeled menin, FITC-MBM1 peptide) (Homo sapiens, UniProt O00255, T541A)
Construct: Menin (a.a 1-610-6xhis tag)
protocol-notes: Menin/MLL homogenous time-resolved fluorescence (HTRF) assay
measurement-setup: 30 min incubation
pIC50: −log10 of the molar value.
measurement-label: pIC50

CC(C)[C@H]([C@H]1C[C@@H](N2CC3(CCCCO3)C2)C1)N1CC2(CCN(c3ncnnc3Oc3ccc(F)cc3-c3nnccc3C3CC3)C2)C1 (single isomer, unassigned)	8.89
CC(C)C([C@H]1C[C@H](N2CC(O)C2)C1)N1CC2(CCN(c3ncnnc3Oc3ccc(F)cc3-c3cncnc3C3CC3)C2)C1 (stereo partly shown)	9.40
CC(C)C([C@H]1C[C@@H](NC(=O)OC(C)(C)C)C1)N1CC2(CCN(c3ncnnc3Oc3ccc(F)cc3-c3cncnc3C3CC3)C2)C1 (single isomer, unassigned) [Compound 491a]	9.89
CC(C)[C@H]([C@H]1C[C@@H](N2CC[C@H](S(C)(=O)=O)C2)C1)N1CC2(CCN(c3ncnnc3Oc3ccc(F)cc3-c3ncccc3C3CC3)C2)C1 (single isomer, unassigned)	9.52
CCOC(=O)c1nnc(N[C@H]2C[C@@H](C(C(C)C)N3CC4(CCN(c5ncnnc5Oc5ccc(F)cc5-c5cncnc5C5CC5)C4)C3)C2)s1 (single isomer, unassigned)	9.74

(A) CC(C)[C@@H]([C@H]1C[C@@H](N2C[C@H]3COC[C@H]3C2)C1)N1CC2(CCN(c3ncnnc3Oc3ccc(F)cc3-c3nnccc3C3CC3)C2)C1 (single isomer, unassigned)
(B) CC(C)C([C@H]1C[C@@H](N2CCC(C)(O)CC2)C1)N1CC2(CCN(c3ncnnc3Oc3ccc(F)cc3-c3cncnc3C3CC3)C2)C1 (stereo partly shown)
Between the entries labeled A and B , whose measured pIC50 is lower? Refer to your chosen item by its label in the answer.
B
(B: 9.70, A: 10.00)

====

test-target: menin/MLL (terbium chelate-labeled menin, FITC-MBM1 peptide) (Homo sapiens, UniProt O00255, T541A)
Construct: Menin (a.a 1-610-6xhis tag)
protocol-notes: Menin/MLL homogenous time-resolved fluorescence (HTRF) assay
measurement-setup: 30 min incubation
measurement-label: IC50 (nM)

CC(C)[C@H]([C@H]1C[C@H](N2CC(O)C3(CCC3)C2)C1)N1CC2(CCN(c3ncnnc3Oc3ccc(F)cc3-c3cncnc3C3CC3)C2)C1 (mixture of isomers)	0.1
CNC(=O)c1nc(N[C@H]2C[C@@H](C(C(C)C)N3CC4(CCN(c5ncnnc5Oc5ccc(F)cc5-c5cncnc5C5CC5)C4)C3)C2)oc1C (single isomer, unassigned)	0.06

(P) CC(C)C([C@H]1C[C@@H](N2CCC(C(=O)N(C)C)CC2)C1)N1CC2(CCN(c3ncnnc3Oc3ccc(F)cc3-c3cncnc3C3CC3)C2)C1 (some centres unmarked)
(Q) CNC(=O)c1cnc(N[C@H]2C[C@@H]([C@@H](C(C)C)N3CC4(CCN(c5ncnnc5Oc5ccc(F)cc5-c5cncnc5C5CC5)C4)C3)C2)s1 (single isomer, unassigned)
(R) CC(=O)N1CC2CN([C@H]3C[C@@H]([C@@H](C(C)C)N4CC5(CCN(c6ncnnc6Oc6ccc(F)cc6-c6cncnc6C6CC6)C5)C4)C3)CC2C1 (single isomer, unassigned)
Descending sort on IC50 required. A complete answer lists every label in the requested sequence.
P, R, Q
(P: 0.2 nM, R: 0.1 nM, Q: 0.05 nM)

====

Test system: MOLM14 cells
protocol-notes: Proliferation assay, spheroid-like growth, MOLM14 (MLL-AF9 rearranged)
Type: cell-based, human
measurement-setup: Homo sapiens, MOLM-14, 192 h, 8 days, confluence as measure of spheroid size, read-out: spheroid assay_OneTime MOLM14 IC50
measurement-label: IC50 (µM)

CC(C)C([C@H]1C[C@@H](Nc2cccc(CN3CCOCC3)n2)C1)N1CC2(CCN(c3ncnnc3Oc3ccc(F)cc3-c3cncnc3C3CC3)C2)C1 (single isomer, unassigned)	0.016
CC(C)[C@@H]([C@H]1C[C@H](N2C[C@H]3C[C@@H]2CO3)C1)N1CC2(CCN(c3ncnnc3Oc3ccc(F)cc3-c3cccnc3C3CC3)C2)C1 (single isomer, unassigned)	0.024
CC(C)[C@@H]([C@H]1C[C@H](N(C)C)C1)N1CC2(CCN(c3ncnnc3Oc3ccc(F)cc3-c3nnccc3C3CC3)C2)C1 (single isomer, unassigned) [Compound 261b]	0.083
CC(C)[C@H]([C@H]1C[C@H](N2CCC2)C1)N1CC2(CCN(c3ncnnc3Oc3ccc(F)cc3-c3cncnc3C3CC3)C2)C1 (single isomer, unassigned)	0.055

(a) CC(C)[C@H]([C@H]1C[C@@H](N2CC3(CCS(=O)(=O)CC3)C2)C1)N1CC2(CCN(c3ncnnc3Oc3ccc(F)cc3-c3cncnc3C3CC3)C2)C1 (single isomer, unassigned)
(b) Cc1nnc(-c2cnc(N[C@H]3C[C@@H]([C@@H](C(C)C)N4CC5(CCN(c6ncnnc6Oc6ccc(F)cc6-c6cncnc6C6CC6)C5)C4)C3)s2)o1 (single isomer, unassigned)
(c) CC(C)C(C1CCN(CC2COC2)CC1)N1CC2(CCN(c3ncnnc3Oc3ccc(F)cc3-c3ncncc3C3CC3)C2)C1 (stereo not shown)
(d) CC(C)C([C@H]1C[C@H](N2CC(O)C2)C1)N1CC2(CCN(c3ncnnc3Oc3ccc(F)cc3-c3cncnc3C3CC3)C2)C1 (stereo partly shown)
Put the compounds in ascending order of IC50. A complete answer lists every label in the requested sequence.
b, a, d, c
(b: 0.006 µM, a: 0.009 µM, d: 0.15 µM, c: 0.3 µM)
